Catalogue of pIC50 values
- tgt: RORγ (Homo sapiens)
- Construct: Gal4 (galactose-responsive transcription factor); expressed in transfected cells; host or cells: HEK293
- assay name: RORγ Reporter Assay (Gal4)
- Format: cell-based
- setup conditions: comparison compounds from WO2016020295, Tables 5 and 6; read-out: Gal4 assay IC50
pIC50: −log10 of the molar value.

Solved cases (3 shown):
compound: NC(=O)CC1CCC(CNc2ncnc(N3CCOC[C@@H]3c3ccc(OC(F)(F)F)cc3)c2F)CC1 (stereo partly shown) [Example 245, reference compound]
pIC50: > 6.30

compound: NC(=O)Cc1ccc(CNc2ncnc(N3CCOC[C@@H]3c3ccc(OC(F)(F)F)cc3)c2F)cc1 [Example 230, reference compound]
pIC50: > 7.00

compound: NC(=O)Cc1ccc(CNc2ncnc(N3CCOC[C@@H]3c3ccc(C(F)(F)F)cc3)c2F)cc1 [Example 204, reference compound]
pIC50: > 6.30

Query compound follows.
Query :: // fetch pIC50 given entry NC(=O)CC1CCC(CNc2ncnc(N3CCOC[C@@H]3c3ccc(C(F)(F)F)cc3)c2F)CC1 (stereo partly shown) [Example 206, reference compound]
Result :: > 6.00

====

- tgt: RORγ (Homo sapiens, UniProt P51449)
- Construct: Gal4 (galactose-responsive transcription factor); expressed in transfected cells; host or cells: HEK293
- Sequence (P51449 269-508 limits assumed): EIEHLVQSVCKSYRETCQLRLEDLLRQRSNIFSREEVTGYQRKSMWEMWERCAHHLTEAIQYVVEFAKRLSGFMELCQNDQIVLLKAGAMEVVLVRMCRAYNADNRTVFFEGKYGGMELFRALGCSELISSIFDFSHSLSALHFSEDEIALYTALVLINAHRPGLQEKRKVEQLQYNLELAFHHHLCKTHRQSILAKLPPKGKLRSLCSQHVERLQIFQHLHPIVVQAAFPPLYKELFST
- assay name: RORγ Reporter Assay (Gal4)
- Assay type: cell-based
- setup conditions: HEK293 co-transfected with RORγ LBD-Gal4 and luciferase reporter, 24 h incubation, absolute IC50; read-out: IC50
property: IC50 (nM)
Respond numerically; units are nM and should not be typed.

compound: NC(=O)CN1CC[C@H](CNc2ncnc(N3CCOC[C@@H]3c3ccc(C(F)(F)F)cc3)c2F)[C@@H](O)C1 (single isomer, unassigned)
IC50, nM: 20
//
compound: NC(=O)CN1CC[C@H](CNc2ncnc(N3CC(F)(F)C[C@@H]3c3ccc(C(F)(F)F)cc3)c2F)[C@@H](O)C1 (mixture of isomers) [Example H6-17]
IC50, nM: 10

Query :: Give IC50 for NC(=O)CN1CCC(CNc2ncnc(N3CC(F)(F)CC3c3ccc(C(F)(F)F)cc3)c2F)CC1 (stereo not shown)
Result :: 140

Query :: Please report IC50 for the following compound: NC(=O)CN1CC[C@H](CNc2ncnc(N3CC(F)(F)C[C@@H]3c3ccc(C(F)(F)F)cn3)c2F)[C@@H](F)C1 (single isomer, unassigned) [Example H6-18-2]
Result :: 60

====

- tgt: RORγ (Homo sapiens, UniProt P51449)
- Construct: Gal4 (galactose-responsive transcription factor); expressed in transfected cells; host or cells: HEK293
- assay name: RORγ Reporter Assay (Gal4)
- Assay type: cell-based
- setup conditions: HEK293 co-transfected with RORγ LBD-Gal4 and luciferase reporter, 24 h incubation, absolute IC50; read-out: IC50
property: pIC50
Scale: negative log10 of molar concentration, which is what pIC50 denotes.

Query :: Name the recorded pIC50 of the item NC(=O)CN1CCC(CNc2ncnc(N3CCC3c3ccc(C(F)(F)F)cc3)c2F)CC1 (stereo not drawn) [Example H6-28] in your answer.
Result :: 6.52

====

- tgt: RORγ (Homo sapiens, UniProt P51449)
- Construct: Gal4 (galactose-responsive transcription factor); expressed in transfected cells; host or cells: HEK293
- assay name: RORγ Reporter Assay (Gal4)
- Format: cell-based
- setup conditions: HEK293 co-transfected with RORγ LBD-Gal4 and luciferase reporter, 24 h incubation, absolute IC50; read-out: IC50
property: log10(IC50) (log10 of the value in nM)
On a log10 scale: recorded IC50, unit nM.

Sample records with log10(IC50):
compound: NC(=O)CN1CC[C@H](CNc2ncnc(N3CC(F)(F)C[C@@H]3c3ccc(C(F)(F)F)cn3)c2F)[C@@H](F)C1 (single isomer, unassigned) [Example H6-18-1]
log10(IC50): 2.15

compound: NC(=O)CN1CCC(CNc2ncnc(N3CC(F)(F)C[C@@H]3c3ccc(C(F)(F)F)cc3)c2F)C(F)(F)C1 (single isomer, unassigned) [Example H6-15-1]
log10(IC50): 0.95

compound: NC(=O)CN1CCC(CNc2ncnc(N3CCOC[C@@H]3c3ccc(C(F)(F)F)cc3)c2F)C(F)(F)C1 (single isomer, unassigned) [Example H6-9-2]
log10(IC50): 1.26

compound: NC(=O)CN1CC[C@@H](CNc2ncnc(N3CCOC[C@@H]3c3ccc(C(F)(F)F)cc3)c2F)[C@H](O)C1 (single isomer, unassigned)
log10(IC50): 1.54

compound: C[C@@H]1COC[C@H](c2cccc(C(F)(F)F)c2)N1c1ncnc(NC[C@@H]2CCN(CC(N)=O)C[C@H]2O)c1F (single isomer, unassigned) [Example H6-21-4]
log10(IC50): 2.08

compound: NC(=O)CN1CC[C@H](CNc2ncnc(N3CCOC[C@@H]3c3ccc(C(F)(F)F)cc3)c2F)[C@@H](F)C1 (single isomer, unassigned) [Example H6-10-2]
log10(IC50): 1.11

compound: NC(=O)CN1CCC(CNc2ncnc(N3CCCC3c3ccc(C(F)(F)F)cc3O)c2F)CC1 (stereo not shown)
log10(IC50): 2.64

compound: NC(=O)CN1CCC(O)(CNc2ncnc(N3CC(F)(F)C[C@@H]3c3ccc(C(F)(F)F)cc3)c2F)CC1
log10(IC50): 2.36

Query :: Give log10(IC50) for the following compound: NC(=O)CN1CCC(F)(CNc2ncnc(N3CCOC[C@@H]3c3ccc(C(F)(F)F)cc3)c2F)CC1
Result :: 1.75

Query :: Answer with reported log10(IC50) of NC(=O)CN1CCC(CNc2ncnc(N3CCOC[C@@H]3c3ccc(OC(F)(F)F)cc3)c2F)CC1
Result :: 2.28

Query :: Please report the measured log10(IC50) for CC(C)(C(N)=O)N1CCC(CNc2ncnc(N3CCOC[C@@H]3c3ccc(C(F)(F)F)cn3)c2F)CC1
Result :: 2.45

Query :: Specify measured log10(IC50) for NC(=O)CN1CCC(F)(CNc2ncnc(N3CCOC[C@@H]3c3ccc(OC(F)(F)F)cc3)c2F)CC1 .
Result :: 1.71

Query :: State, in one line, measured log10(IC50) of NC(=O)CN1CCC(CNc2ncnc(N3CCOC[C@@H]3c3ccc(C(F)(F)F)cc3)c2F)C(F)(F)C1 (single isomer, unassigned) [Example H6-9-1]
Result :: 2.00

src = patent US11447479B2
